biological target: EGR1 DB_H382A (human, UniProt P18146 331-430, H382A); assay: ITC
measured quantity: pKd
Entry type: numeric. Quantity: pKd, the -log10 of concentration in molar units.

Ask | Complete the entry with pKd for ZRE duplex (15-mer) (dsDNA) DNA 1: ATAGCGTGGGCGTTT DNA 2: AAACGCCCACGCTAT
Reply | 5.79
